Conditions: 293.15 K; 25000 kPa; Liquid; Vibrating tube method
Below, each entry is listed with its recorded mass density.
Report the value in kg/m3 with no unit label.

Past entries and their recorded results:
{"columns": ["molecule", "display.unit", "mass density"],
 "data": [
  ["CCCC[n+]1cccc(C)c1.N#C[N-]C#N [1-butyl-3-methylpyridinium dicyanamide]", "kg/m3", 1061.8],
  ["CCCCCCCC[n+]1cccc(C)c1.F[B-](F)(F)F [N-octyl-3-methylpyridinium tetrafluoroborate]", "kg/m3", 1111.4],
  ["CCC[n+]1ccccc1Oc1ccc(Cl)c[n+]1CCOS(=O)(=O)[O-].F[B-](F)(F)F", "kg/m3", 1267.47]
]}

Consider the additional molecule presented here.
For record CCCC[n+]1ccccc1.F[B-](F)(F)F [1-butylpyridinium tetrafluoroborate] the listed mass density is 1228.73

====

Details: 333.15 K; 25000 kPa; Liquid; Vibrating tube method
Known mass density of a selection of compounds
Report the value in kg/m3 with no unit label.

{"columns": ["compound", "property.measured", "value"],
 "data": [
  ["CCCC[n+]1cccc(C)c1.N#C[N-]C#N [1-butyl-3-methylpyridinium dicyanamide]", "mass density", 1038.36],
  ["CCCC[n+]1ccccc1.F[B-](F)(F)F [1-butylpyridinium tetrafluoroborate]", "mass density", 1202.04],
  ["CCCCCCCC[n+]1cccc(C)c1.F[B-](F)(F)F [N-octyl-3-methylpyridinium tetrafluoroborate]", "mass density", 1086.03],
  ["CCC[n+]1ccccc1Oc1ccc(Cl)c[n+]1CCOS(=O)(=O)[O-].F[B-](F)(F)F", "mass density", 1239.91]
]}

For the next question, use this compound.
Record CCCC[n+]1ccccc1.O=S(=O)([O-])C(F)(F)F [1-butylpyridinium trifluoromethanesulfonate] , field mass density: 1303.31

====

Settings: 308.15 K; 60000 kPa; Liquid; Vibrating tube method
property.measured: mass density (kg/m3)
# output: bare number, implied unit kg/m3

As a guide, the following entries are already answered.
{"columns": ["molecule", "display.unit", "mass density"],
 "data": [
  ["CCC[n+]1ccccc1Oc1ccc(Cl)c[n+]1CCOS(=O)(=O)[O-].F[B-](F)(F)F", "kg/m3", 1270.11],
  ["CCCC[n+]1ccccc1.F[B-](F)(F)F [1-butylpyridinium tetrafluoroborate]", "kg/m3", 1232.17]
]}

get_value(item= CCCC[n+]1cccc(C)c1.N#C[N-]C#N [1-butyl-3-methylpyridinium dicyanamide] , readout=mass density) returns 1064.76

Record summary for CCCC[n+]1ccccc1.O=S(=O)([O-])C(F)(F)F [1-butylpyridinium trifluoromethanesulfonate] : reported mass density = 1338.51

Reported mass density of CCCCCCCC[n+]1cccc(C)c1.F[B-](F)(F)F [N-octyl-3-methylpyridinium tetrafluoroborate] : 1116.66

====

Conditions: 298.15 K; 45000 kPa; Liquid; Vibrating tube method
property.measured: mass density (kg/m3)
Kindly provide the numeric value in kg/m3 only, without the unit symbol.

Consider the reported mass density for these compounds:
{"columns": ["compound", "value"],
 "data": [
  ["CCCCCCCC[n+]1cccc(C)c1.F[B-](F)(F)F [N-octyl-3-methylpyridinium tetrafluoroborate]", 1116.65],
  ["CCCC[n+]1cccc(C)c1.N#C[N-]C#N [1-butyl-3-methylpyridinium dicyanamide]", 1065.73],
  ["CCC[n+]1ccccc1Oc1ccc(Cl)c[n+]1CCOS(=O)(=O)[O-].F[B-](F)(F)F", 1271.6]
]}

Shift focus to the following entry.
// mass density lookup, compound = CCCC[n+]1ccccc1.F[B-](F)(F)F [1-butylpyridinium tetrafluoroborate] , result: 1233.36
